tested on: MOLT-4; assay: NCI tumour cell line growth inhibition, 48 h
Calls of active or inactive are those of the source. No stated cut-off is given here; in the data, active = GI50 up to about 1.1 µM and inactive = higher.
Lab note: assign the record to one of true (1) for active, false (0) for inactive

What did this assay record as the result for O=C1N[C@@H]2c3c(Br)sc(Br)c3C(=O)[C@@H]2N1 ?
false (0)

What did this assay record as the result for CC12CC3CC(C)(C1)CC(N=[N+]=[N-])(C3)C2 ?
false (0)

What did this assay record as the result for CC(=O)OC1C=C(C=O)C(O)(C=O)C2(C)CCCC(C)(C)C12 (stereo not given) ?
true (1)

What did this assay record as the result for CN(C(=O)C12C3C4C1C1C2C3C41C#N)C(C)(C)C (stereo not given) ?
false (0)

What did this assay record as the result for CC(=O)Oc1c(C)c2c(O)c3c1C1=C(OCOC1=C(C)C3=O)/C(C)=C/C(C)(O)C(O)C(C)C(O)C1C(=O)OC(C(C)C1O)C(C)(O)/C=C\C=C(C)C(=O)N2 (stereo not given) ?
false (0)
